Data origin, for the record: PubChem BioAssay AID179

- System: CEM cells HIV-1 protection, formazan growth assay
- assayProcedure: NCI AIDS Antiviral Assay
- conditionNotes: measured here: growth of uninfected CEM cells
Kindly state pIC50 for each of the entries shown.
Lab note — pIC50 values are minus log10 of concentrations in M.

Quick one: pIC50 of CC(C)C1OC2(C)OC(=N)C1(C#N)C(C#N)(C#N)C2C (configuration not stated) ? 4.92

Please do the same for `O=C(Nc1ccc(Cl)cc1)OCC12COCN1COC2` as well. 3.59

Please do the same for COc1ccc(N=NC(=O)NC(Cc2ccccc2)C(=O)O)cc1 (configuration not stated) as well. 4.70

Please do the same for `Cc1cc(N(C)C)c(C=O)c(C)c1C=O` as well. 4.03

Please do the same for `Cc1cccc2c1C(=O)[C@](C)([C@]1(C)Nc3cccc(C)c3C1=O)N2` as well. 4.76

Please do the same for `O=c1c(Cl)nsnc1Cl` as well. 4.55

Please do the same for `Clc1ccc(/C(=C/c2ccccc2)Cn2ccnc2)cc1` as well. 4.45

Please do the same for COc1cc(C2SC(N)=Nc3c2c(C)nn3C(=O)c2ccccc2O)ccc1O (configuration not stated) as well. 7.01

###

- Test system: CEM cells HIV-1 protection, formazan growth assay
- assayProcedure: NCI AIDS Antiviral Assay
- conditionNotes: measured here: growth of uninfected CEM cells
Rule: IC50 below 100 µM gives fulfilled, anything at or above gives not fulfilled.

In the record for `CC1(C)OP(=O)(O)C=C1Sc1ccc([N+](=O)[O-])cc1[N+](=O)[O-]` , is IC50 less than 100 µM? not fulfilled

Please do the same for `N#C/C(=C\c1cccc(OCc2ccccc2)c1)c1ccc([N+](=O)[O-])cc1` as well. not fulfilled

Please do the same for Nc1ncnc2c1ncn2C1C=CC(CP(=O)(O)O)C1 (centres undefined) as well. not fulfilled

Please do the same for `COc1cc2c(c(OC)c1OC)C(=O)[C@H](O)[C@H]2NC(N)=O` as well. not fulfilled

Please do the same for CC(=O)O[C@H]1[C@H](OC(=O)CC(C)(O)CC(=O)O)C[C@]2(C)C3=C(CCC2C1(C)C)[C@]1(C)CC[C@H]([C@H]2CC[C@H](C(C)(C)O)OC2O)[C@@]1(C)[C@@H](O)C3 (some centres undefined) as well. fulfilled

Please do the same for `Cn1c(-c2ccc(/C=N/N=C/c3ccc(-c4c[n+]5ccccc5n4C)cc3)cc2)c[n+]2ccccc12` as well. not fulfilled

Please do the same for CCN(CC)CCCC(C)Nc1cc(-c2ccccc2)nc2ccc(OC)cc12 (centres undefined) as well. fulfilled

Please do the same for `CCOC(=O)/C(C1=NCCN1)=C(\O)c1ccccc1` as well. not fulfilled

###

- System: CEM cells HIV-1 protection, formazan growth assay
- assayProcedure: NCI AIDS Antiviral Assay
pEC50: −log10 of the molar value.
Kindly state pEC50 for each of the entries shown.

Quick one: pEC50 of COc1cc(/C=C2\CCC(C)C3C2=NN(C(C)=O)C3c2cc(OC)c(OC)c(OC)c2)cc(OC)c1OC (stereo not drawn) ? < 4.00

Please do the same for `O=C1NC(N2CCOCC2)=N/C1=C\c1cccs1` as well. < 3.70

Please do the same for `COc1ccc(-c2nc(Sc3c([N+](=O)[O-])ncn3C)n[nH]2)cc1` as well. < 3.27

Please do the same for CC(CN)OC12CC3CC(CC(C3)C1)C2 (stereo not drawn) as well. < 3.70

Please do the same for CCOC(=O)C1C(c2ccc(OC)cc2)C(C(=O)OCC)C(O)(C(F)(F)F)OC1(O)C(F)(F)F (stereo not drawn) as well. < 3.59

Please do the same for `NC(=S)N/N=C1\CCCC\C1=N/NC(N)=S` as well. < 3.70

Please do the same for `COc1ccc2oc(=S)[nH]c2c1` as well. < 3.70

Please do the same for `[O]=[Sb]([OH])([OH])[c]1ccc(Br)cc1` as well. < 3.70

Please do the same for `COc1ccc2cc3[n+](cc2c1O)CCc1cc2c(cc1-3)OCO2` as well. < 3.46

Please do the same for `CN(NC(=O)/C(=C/c1ccc2c(c1)OCO2)NC(=O)c1ccccc1)c1ccnc2cc(Cl)ccc12` as well. < 3.70

Please do the same for `N#CCCN(CCC#N)c1ccc(/C=C2\N=C(c3ccccc3)N(NC(N)=S)C2=O)cc1` as well. < 3.70

Please do the same for `COc1ccc(/C=N/Nc2nc3ccccc3c(=O)n2-c2ccccc2)cc1` as well. < 3.70

Please do the same for `CCOC(=S)SCCSC` as well. < 3.70

Please do the same for `CCOC(=O)c1c(-c2ccccc2)c(C)cn1C` as well. < 3.70

Please do the same for COc1ccc2c(c1)Oc1cc(O)ccc1[C@@H]2c1ccccc1C(=O)NC(C)c1ccccc1 (stereo partly drawn) as well. < 4.80

Please do the same for `Clc1cccc2[nH]ncc12` as well. < 3.70

Please do the same for `O=C1c2ccccc2Sc2ccccc2N1CCCN1CCN(c2ccc(F)cc2)CC1` as well. < 3.70

Please do the same for CC(C)CCC[C@@H](C)[C@H]1CC[C@H]2[C@@H]3CC=C4CC(OC(=O)OC5CCC6(C)CC7C=CC6(OO7)C5(C)C)CC[C@]4(C)[C@H]3CC[C@]12C (stereo partly drawn) as well. < 4.00

Please do the same for COCc1cn(C2CCC(CO)O2)c(=O)[nH]c1=O (stereo not drawn) as well. < 3.31

Please do the same for CC(C)(C)C1=NC(S)NC(CCC(=O)Nc2ccccc2[N+](=O)[O-])=C1 (stereo not drawn) as well. < 3.16

Please do the same for `O=NNc1ccc(S(=O)(=O)c2ccc3ccccc3c2)cn1` as well. < 3.70

Please do the same for `Cc1ccc2c(c1)P(=O)(O)c1cc(C)ccc1S2(=O)=O` as well. < 3.70

Please do the same for `CN(/N=C(\C(=O)O)c1ccccc1)C1=NCCN1` as well. < 3.70

###

- Tested on: CEM cells HIV-1 protection, formazan growth assay
- assayProcedure: NCI AIDS Antiviral Assay
- conditionNotes: measured here: growth of uninfected CEM cells
Kindly state pIC50 for each of the entries shown.
Lab note — pIC50 values are minus log10 of concentrations in M.

Quick one: pIC50 of Cc1ccc(S(=O)(=O)NNC2Oc3cc4c(cc3C(c3ccccc3O)C2C)OCO4)cc1 (configuration not stated) ? 4.58

Please do the same for `CCOC(=O)Nc1ccc2nc(-c3cscn3)[nH]c2c1` as well. 5.78

Please do the same for CCOC(=O)C(c1ccsc1)P(=O)(OCC)OCC (configuration not stated) as well. 4.55

Please do the same for O=C1CC(=O)NC(=NN2C(=O)CSC2C(=O)c2ccco2)N1 (configuration not stated) as well. 3.24

Please do the same for `CCOC(=O)C[C@@H]1C2(C=C[C@@]13CO3)OCC(C)(C)CO2` as well. 3.89

Please do the same for `O=P(N1CC1)(N1CC1)N1CCN(P(=O)(N2CC2)N2CC2)CC1` as well. 5.65

Please do the same for CC(C)C1COC(C(C)(C)C2=N[C@@H](C(C)C)CO2)=N1 (some centres not stated) as well. 3.87

Please do the same for Cc1cc(Cl)cc2c1NC(=O)C2(O)C(C)C(=O)c1ccc(Cl)cc1 (configuration not stated) as well. 3.91

Please do the same for `C/C=C/C(=O)Oc1cccc2cccnc12` as well. 5.82

Please do the same for `N[C@@H]1c2c(csc2Br)C(=O)[C@@H]1O` as well. 4.96

###

- System: CEM cells HIV-1 protection, formazan growth assay
- assayProcedure: NCI AIDS Antiviral Assay
measurementName: EC50

Quick one: EC50 of C=C1CC[N+]2(C)CCCC12 (stereo unspecified) ? > 1150 µM

Please do the same for `Nc1nc(Cl)c(CO)c(NCC2(CO)CCC2)n1` as well. > 200 µM

Please do the same for `FC(F)(F)c1nc(Cl)c2ncsc2n1` as well. > 200 µM

Please do the same for `O=C(O)c1cscc1C(=O)O` as well. > 200 µM

Please do the same for `CCCc1cc(=O)oc2c3c(c4c(c12)OC(C)(C)[C@H](O)[C@@H]4O)O[C@@H](C)[C@H](C)[C@@H]3O` as well. > 200 µM

Please do the same for `NCCSS(=O)(=O)CCN` as well. > 363 µM

Please do the same for `CCNc1ncc2nc(CC(=O)OC)c(=O)n(CC)c2n1` as well. > 200 µM

Please do the same for `CC(C)C(=O)/C=C/c1ccccc1` as well. > 200 µM

Please do the same for `CCOC(=O)/C(=C/c1ccc(C(=O)OC)cc1)N(CC)CC` as well. > 427 µM

Please do the same for `CC1=C(C(=O)Nc2cccc(C(F)(F)F)c2)C(c2ccc(O)cc2)C(C(=O)Nc2cccc(C(F)(F)F)c2)=C(C)N1` as well. > 32.4 µM

Please do the same for `C/C(=N/NC(=S)N1CCN(C(=S)N/N=C(/C)c2ccccn2)CC1)c1ccccn1` as well. > 200 µM

Please do the same for `CCN(CC)CCCCCCCNc1c2ccc(Cl)cc2nc2ccc(OC)cc12` as well. > 2 µM

Please do the same for `CN(C)N=Nc1ccc2[nH]c(=O)[nH]c2c1` as well. > 200 µM

Please do the same for COC([C@@H](OC(=O)c1ccccc1)[C@H](OC(=O)c1ccccc1)C(O)COC(=O)c1ccccc1)n1cc(C)c(=O)[nH]c1=O (stereo partly specified) as well. > 200 µM

Please do the same for CSC12c3cc(C)n(-c4ccc(I)cc4)c3CC(C)(C)CN1C(=O)C2Oc1ccccc1 (stereo unspecified) as well. > 200 µM

Please do the same for COC(=O)C(c1ccc(OC)cc1)N1C(=O)[C@@H](NC(=O)c2ccccc2)[C@H]1[C@@H](C)O (stereo partly specified) as well. > 200 µM

Please do the same for `C=C=[CH][Sn]([c]1ccccc1)([c]1ccccc1)[c]1ccccc1` as well. > 35.5 µM

Please do the same for CCCCCCCCCCCCCCCc1ccc(OCC(O)CO)cc1 (stereo unspecified) as well. > 19.1 µM

Please do the same for `C/C(=C1/N=C(c2cc([N+](=O)[O-])ccc2Cl)N(c2cccc(C)c2)C1=O)c1cc2ccccc2oc1=O` as well. > 7.59 µM

Please do the same for C/C(=N\NC(=O)c1cccc2c(=O)c3ccccc3[nH]c12)C1CC[C@H]2[C@@H]3CCC4=C/C(=N\NC(=O)c5cccc6c(=O)c7ccccc7[nH]c56)CC[C@]4(C)[C@H]3CC[C@]12C (stereo partly specified) as well. > 50.1 µM

Please do the same for `CC1(C)Nc2cc3c(cc2-n2cccc21)oc1ccccc13` as well. > 200 µM
